These measurements were taken from ChEMBL document CHEMBL1140860.

System: SK-OV-3
assayExplanation: Growth inhibition of human SKOV3 cells after 48 hrs by sulforhodamine B assay
Assay type: functional
cond: SK-OV-3, 48 h
recordedMetric: GI50 (µM)
Record the value in µM, omitting the unit from your answer.

Q: Requested read-out: GI50. Entry: C[C@H]1[C@H](OCCO[C@H]2O[C@@H]3O[C@@]4(C)CC[C@H]5[C@H](C)CC[C@@H]([C@H]2C)[C@@]35OO4)O[C@@H]2O[C@@]3(C)CC[C@H]4[C@H](C)CC[C@@H]1[C@@]24OO3
A: 17.9

Q: Same read-out for COCC(CO[C@H]1O[C@@H]2O[C@@]3(C)CC[C@H]4[C@H](C)CC[C@@H]([C@H]1C)[C@@]24OO3)O[C@H]1O[C@@H]2O[C@@]3(C)CC[C@H]4[C@H](C)CC[C@@H]([C@H]1C)[C@@]24OO3 (stereo partly drawn) ?
A: 10.9

Q: Same read-out for C[C@H]1[C@@H](O[C@@H](C)CO[C@H]2O[C@@H]3O[C@@]4(C)CC[C@H]5[C@H](C)CC[C@@H]([C@H]2C)[C@@]35OO4)O[C@@H]2O[C@@]3(C)CC[C@H]4[C@H](C)CC[C@@H]1[C@@]24OO3 ?
A: 23.6

* * *

Here the recorded GI50 is given for each entry.
Tested on: OVCAR-8
assayExplanation: Growth inhibition of human OVCAR8 cells after 48 hrs by sulforhodamine B assay
Type: functional
cond: OVCAR-8, 48 h
Record the value in nM, omitting the unit from your answer.

Solved entries:
Q: Requested read-out: GI50. Entry: C[C@H]1[C@@H](OCC(O)CO[C@@H]2C[C@@H]3CC[C@@H](C)[C@@H]4CC[C@@]5(C)OO[C@@]34[C@H](O2)O5)O[C@@H]2O[C@@]3(C)CC[C@H]4[C@H](C)CC[C@@H]1[C@@]24OO3 (some centres not stated)
A: 252

Q: Same read-out for C[C@H]1[C@H](OCCCCO[C@H]2O[C@@H]3O[C@@]4(C)CC[C@H]5[C@H](C)CC[C@@H]([C@H]2C)[C@@]35OO4)O[C@@H]2O[C@@]3(C)CC[C@H]4[C@H](C)CC[C@@H]1[C@@]24OO3 ?
A: 47

Q: Same read-out for C=C1[C@@H](OCCCO[C@H]2O[C@@H]3O[C@@]4(C)CC[C@H]5[C@H](C)CC[C@@H](C2=C)[C@@]35OO4)O[C@@H]2O[C@@]3(C)CC[C@H]4[C@H](C)CC[C@@H]1[C@@]24OO3 ?
A: 372

More entries:
Q: Requested read-out: GI50. Entry: C[C@H]1[C@@H](O[C@@H](C)CO[C@H]2O[C@@H]3O[C@@]4(C)CC[C@H]5[C@H](C)CC[C@@H]([C@H]2C)[C@@]35OO4)O[C@@H]2O[C@@]3(C)CC[C@H]4[C@H](C)CC[C@@H]1[C@@]24OO3
A: 34

Q: Same read-out for COCC(CO[C@H]1O[C@@H]2O[C@@]3(C)CC[C@H]4[C@H](C)CC[C@@H]([C@H]1C)[C@@]24OO3)O[C@H]1O[C@@H]2O[C@@]3(C)CC[C@H]4[C@H](C)CC[C@@H]([C@H]1C)[C@@]24OO3 (some centres not stated) ?
A: 130

Q: Same read-out for C[C@H]1[C@@H](OCC(CO[C@H]2O[C@@H]3O[C@@]4(C)CC[C@H]5[C@H](C)CC[C@@H]([C@H]2C)[C@@]35OO4)OC(=O)CCC(=O)O)O[C@@H]2O[C@@]3(C)CC[C@H]4[C@H](C)CC[C@@H]1[C@@]24OO3 (some centres not stated) ?
A: 15

Q: Same read-out for C[C@H]1[C@H](OCCO[C@H]2O[C@@H]3O[C@@]4(C)CC[C@H]5[C@H](C)CC[C@@H]([C@H]2C)[C@@]35OO4)O[C@@H]2O[C@@]3(C)CC[C@H]4[C@H](C)CC[C@@H]1[C@@]24OO3 ?
A: 34

Q: Same read-out for C[C@H]1[C@@H](O[C@H]2CC[C@H](O[C@H]3O[C@@H]4O[C@@]5(C)CC[C@H]6[C@H](C)CC[C@@H]([C@H]3C)[C@@]46OO5)CC2)O[C@@H]2O[C@@]3(C)CC[C@H]4[C@H](C)CC[C@@H]1[C@@]24OO3 ?
A: 57

Q: Same read-out for C[C@H]1[C@@H](O[C@H]2CC[C@@H](O[C@H]3O[C@@H]4O[C@@]5(C)CC[C@H]6[C@H](C)CC[C@@H]([C@H]3C)[C@@]46OO5)CC2)O[C@@H]2O[C@@]3(C)CC[C@H]4[C@H](C)CC[C@@H]1[C@@]24OO3 ?
A: 19

Q: Same read-out for C[C@H]1[C@@H](OCCO[C@H]2O[C@@H]3O[C@@]4(C)CC[C@H]5[C@H](C)CC[C@@H]([C@H]2C)[C@@]35OO4)O[C@@H]2O[C@@]3(C)CC[C@H]4[C@H](C)CC[C@@H]1[C@@]24OO3 ?
A: 179

* * *

assayExplanation: Selectivity index, ratio of TC50 for african green monkey (Cercopithecus aethiops) Vero cells to IC50 for chloroquine-resistant Plasmodium falciparum W2
Type: toxicity, cell-based
recordedMetric: selectivity ratio

Solved entries:
Q: Requested read-out: selectivity ratio. Entry: C[C@H]1[C@@H](O[C@H]2O[C@@H]3O[C@@]4(C)CC[C@H]5[C@H](C)CC[C@@H]([C@H]2C)[C@@]35OO4)O[C@@H]2O[C@@]3(C)CC[C@H]4[C@H](C)CC[C@@H]1[C@@]24OO3
A: > 125

Q: Same read-out for C[C@H]1[C@H](OCCO[C@H]2O[C@@H]3O[C@@]4(C)CC[C@H]5[C@H](C)CC[C@@H]([C@H]2C)[C@@]35OO4)O[C@@H]2O[C@@]3(C)CC[C@H]4[C@H](C)CC[C@@H]1[C@@]24OO3 ?
A: > 37

Q: Same read-out for COCC(CO[C@H]1O[C@@H]2O[C@@]3(C)CC[C@H]4[C@H](C)CC[C@@H]([C@H]1C)[C@@]24OO3)O[C@H]1O[C@@H]2O[C@@]3(C)CC[C@H]4[C@H](C)CC[C@@H]([C@H]1C)[C@@]24OO3 (some centres undefined) ?
A: > 159

Let's switch to this compound now.
Q: Requested read-out: selectivity ratio. Entry: C[C@H]1[C@@H](OCCO[C@H]2O[C@@H]3O[C@@]4(C)CC[C@H]5[C@H](C)CC[C@@H]([C@H]2C)[C@@]35OO4)O[C@@H]2O[C@@]3(C)CC[C@H]4[C@H](C)CC[C@@H]1[C@@]24OO3
A: > 64

* * *

assayExplanation: Cytotoxicity against african green monkey Vero cells after 48 hrs by neutral red assay
Assay type: cell-based
cond: chlorocebus sabaeus, read-out: TC50
recordedMetric: CC50 at 48 h

Q: Requested read-out: CC50 at 48 h. Entry: C[C@H]1[C@H](OCCCCO[C@H]2O[C@@H]3O[C@@]4(C)CC[C@H]5[C@H](C)CC[C@@H]([C@H]2C)[C@@]35OO4)O[C@@H]2O[C@@]3(C)CC[C@H]4[C@H](C)CC[C@@H]1[C@@]24OO3
A: > 764 µM

Q: Same read-out for C[C@H]1[C@@H](O[C@H]2CC[C@@H](O[C@H]3O[C@@H]4O[C@@]5(C)CC[C@H]6[C@H](C)CC[C@@H]([C@H]3C)[C@@]46OO5)CC2)O[C@@H]2O[C@@]3(C)CC[C@H]4[C@H](C)CC[C@@H]1[C@@]24OO3 ?
A: > 7340 µM

Q: Same read-out for C[C@H]1[C@@H](OCC(=O)CO[C@H]2O[C@@H]3O[C@@]4(C)CC[C@H]5[C@H](C)CC[C@@H]([C@H]2C)[C@@]35OO4)O[C@@H]2O[C@@]3(C)CC[C@H]4[C@H](C)CC[C@@H]1[C@@]24OO3 ?
A: > 7640 µM

* * *

Here the recorded GI50 is given for each entry.
System: OVCAR-5
assayExplanation: Growth inhibition of human OVCAR5 cells after 48 hrs by sulforhodamine B assay
Format: functional
cond: OVCAR-5, 48 h
Record the value in nM, omitting the unit from your answer.

Q: Requested read-out: GI50. Entry: C[C@H]1[C@@H](O[C@@H](C)CO[C@H]2O[C@@H]3O[C@@]4(C)CC[C@H]5[C@H](C)CC[C@@H]([C@H]2C)[C@@]35OO4)O[C@@H]2O[C@@]3(C)CC[C@H]4[C@H](C)CC[C@@H]1[C@@]24OO3
A: 27

Q: Same read-out for C[C@H]1[C@@H](OCCO[C@H]2O[C@@H]3O[C@@]4(C)CC[C@H]5[C@H](C)CC[C@@H]([C@H]2C)[C@@]35OO4)O[C@@H]2O[C@@]3(C)CC[C@H]4[C@H](C)CC[C@@H]1[C@@]24OO3 ?
A: 83

Q: Same read-out for C[C@H]1[C@@H](O[C@H]2CC[C@H](O[C@H]3O[C@@H]4O[C@@]5(C)CC[C@H]6[C@H](C)CC[C@@H]([C@H]3C)[C@@]46OO5)CC2)O[C@@H]2O[C@@]3(C)CC[C@H]4[C@H](C)CC[C@@H]1[C@@]24OO3 ?
A: 42

Q: Same read-out for C[C@H]1[C@H](OCCCCO[C@H]2O[C@@H]3O[C@@]4(C)CC[C@H]5[C@H](C)CC[C@@H]([C@H]2C)[C@@]35OO4)O[C@@H]2O[C@@]3(C)CC[C@H]4[C@H](C)CC[C@@H]1[C@@]24OO3 ?
A: 65

Q: Same read-out for COCC(CO[C@H]1O[C@@H]2O[C@@]3(C)CC[C@H]4[C@H](C)CC[C@@H]([C@H]1C)[C@@]24OO3)O[C@H]1O[C@@H]2O[C@@]3(C)CC[C@H]4[C@H](C)CC[C@@H]([C@H]1C)[C@@]24OO3 (some centres not stated) ?
A: 104

More entries:
Q: Requested read-out: GI50. Entry: C[C@H]1[C@@H](OCC(O)CO[C@@H]2C[C@@H]3CC[C@@H](C)[C@@H]4CC[C@@]5(C)OO[C@@]34[C@H](O2)O5)O[C@@H]2O[C@@]3(C)CC[C@H]4[C@H](C)CC[C@@H]1[C@@]24OO3 (some centres not stated)
A: 17700

Q: Same read-out for C=C1[C@@H](OCCCO[C@H]2O[C@@H]3O[C@@]4(C)CC[C@H]5[C@H](C)CC[C@@H](C2=C)[C@@]35OO4)O[C@@H]2O[C@@]3(C)CC[C@H]4[C@H](C)CC[C@@H]1[C@@]24OO3 ?
A: 5040

Q: Same read-out for C[C@H]1[C@H](OCCO[C@H]2O[C@@H]3O[C@@]4(C)CC[C@H]5[C@H](C)CC[C@@H]([C@H]2C)[C@@]35OO4)O[C@@H]2O[C@@]3(C)CC[C@H]4[C@H](C)CC[C@@H]1[C@@]24OO3 ?
A: 59

Q: Same read-out for C[C@H]1[C@@H](O[C@H]2CC[C@@H](O[C@H]3O[C@@H]4O[C@@]5(C)CC[C@H]6[C@H](C)CC[C@@H]([C@H]3C)[C@@]46OO5)CC2)O[C@@H]2O[C@@]3(C)CC[C@H]4[C@H](C)CC[C@@H]1[C@@]24OO3 ?
A: 152
